Origin of values: patent EP4755888A1

# SYSTEM NAME: PD-1/PD-L1 (Homo sapiens, UniProt Q9NZQ7)
# Sequence (Q9NZQ7 19-238 limits assumed): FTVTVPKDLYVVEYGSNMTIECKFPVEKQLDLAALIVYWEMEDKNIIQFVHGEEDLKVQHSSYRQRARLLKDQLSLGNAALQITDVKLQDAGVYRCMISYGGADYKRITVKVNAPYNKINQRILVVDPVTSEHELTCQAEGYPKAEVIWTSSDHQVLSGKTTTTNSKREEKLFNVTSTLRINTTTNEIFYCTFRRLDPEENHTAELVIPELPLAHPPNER
# METHOD SUMMARY: TR-FRET PD-1/PD-L1 binding inhibition at the molecular level (free proteins)
# STATED CONDITIONS: Tag1-PD-L1 and Tag2-PD-1 proteins, twelve concentrations from 200 nM, 2 hours at room temperature, read-out: FRET assay (IC50)
Below, each of the compounds is paired with its reported IC50 value.

{"COMPOUND": "O=C(O)CNC1CCCn2nc(C(=O)Nc3cccc(-c4cccc(NC(=O)c5ccc(CNCCO)c(F)n5)c4Cl)c3Cl)cc21 (stereo not drawn) [Compound 198]", "IC50": "< 0.01 µM"}
{"COMPOUND": "CN[C@@H]1CCCn2nc(C(=O)Nc3cccc(-c4cccc(NC(=O)c5ccc(CN6CC[C@@H](O)C6)cn5)c4C)c3C)cc21 [Compound 349]", "IC50": "0.01 to 0.1 µM"}
{"COMPOUND": "O=C(O)CN[C@@H]1CCCn2nc(C(=O)Nc3cccc(-c4cccc(NC(=O)c5ccc(CNCCO)cn5)c4Cl)c3Cl)cc21 [Compound 221]", "IC50": "< 0.01 µM"}

###

# SYSTEM NAME: PD-1/PD-L1 (Homo sapiens)
# METHOD SUMMARY: TR-FRET PD-1/PD-L1 binding inhibition at the molecular level (free proteins)
# STATED CONDITIONS: Tag1-PD-L1 and Tag2-PD-1 proteins, twelve concentrations from 200 nM, 2 hours at room temperature, read-out: FRET assay (IC50)
pIC50: −log10 of the molar value.

{"COMPOUND": "COc1nc(-c2cccc(-c3cccc(-c4cc5n(n4)CCCC5N4CC[C@@H](C(=O)O)C4)c3C)c2C)cnc1CNC[C@@H]1CCC(=O)N1 (stereo partly drawn)", "pIC50": "> 8.00"}
{"COMPOUND": "CN[C@H]1CCCn2nc(C(=O)Nc3cccc(-c4cccc(Nc5nc(C(F)(F)F)nc6cccnc56)c4Cl)c3Cl)cc21", "pIC50": "7.00 to 8.00"}
{"COMPOUND": "COc1nc(-c2cccc(-c3cccc(-c4cc5n(n4)CCCC5NCCO)c3C)c2C)cnc1CNC[C@@H]1CCC(=O)N1 (stereo partly drawn)", "pIC50": "7.00 to 8.00"}
{"COMPOUND": "CC(C)c1nc(Nc2cccc(-c3cccc(NC(=O)c4cc5n(n4)CCC[C@@H]5NC(C)(C)C(=O)O)c3Cl)c2Cl)c2ncccc2n1 (stereo in doubt) [Compound 300]", "pIC50": "7.00 to 8.00"}
{"COMPOUND": "Cc1c(NC(=O)c2cc3n(n2)CCC[C@@H]3NCC(=O)O)cccc1-c1cccc(Nc2nc(C(F)F)nc3cc(CN4CC[C@@H](O)C4)cnc23)c1C", "pIC50": "> 8.00"}
{"COMPOUND": "CN[C@@H]1CCCn2nc(C(=O)Nc3cccc(-c4cccc(NC(=O)c5ccc(CN6CC[C@@H](O)C6)cn5)c4Cl)c3Cl)cc21", "pIC50": "7.00 to 8.00"}

###

# SYSTEM NAME: PD-1/PD-L1 (Homo sapiens, UniProt Q9NZQ7)
# METHOD SUMMARY: TR-FRET PD-1/PD-L1 binding inhibition at the molecular level (free proteins)
# STATED CONDITIONS: Tag1-PD-L1 and Tag2-PD-1 proteins, twelve concentrations from 200 nM, 2 hours at room temperature, read-out: FRET assay (IC50)

{"COMPOUND": "Cc1c(NC(=O)c2cc3n(n2)CCCC3=O)cccc1-c1cccc(NC(=O)c2cc3n(n2)CCCC3O)c1C (stereo not drawn)", "SYSTEM NAME": "PD-1/PD-L1 (Homo sapiens, UniProt Q9NZQ7)", "IC50": "< 10 nM"}
{"COMPOUND": "O=C(O)CN[C@H]1CCCn2nc(C(=O)Nc3cccc(-c4cccc(Nc5nc(C(F)F)nc6cc(CN7CC[C@@H](O)C7)cnc56)c4Cl)c3Cl)cc21 [Compound 293]", "SYSTEM NAME": "PD-1/PD-L1 (Homo sapiens, UniProt Q9NZQ7)", "IC50": "10 to 100 nM"}
{"COMPOUND": "O=C(Nc1cccc(-c2cccc(NC(=O)c3cc4n(n3)CCCC4N3CC[C@@H](C(=O)O)C3)c2Cl)c1Cl)c1ccc(CN2CC[C@@H](O)C2)c(F)n1 (stereo partly drawn)", "SYSTEM NAME": "PD-1/PD-L1 (Homo sapiens, UniProt Q9NZQ7)", "IC50": "< 10 nM"}

###

# SYSTEM NAME: PD-1/PD-L1 (Homo sapiens)
# METHOD SUMMARY: TR-FRET PD-1/PD-L1 binding inhibition at the molecular level (free proteins)
# STATED CONDITIONS: Tag1-PD-L1 and Tag2-PD-1 proteins, twelve concentrations from 200 nM, 2 hours at room temperature, read-out: FRET assay (IC50)
Below, each of the compounds is paired with its reported IC50 value.

{"COMPOUND": "O=C(Nc1cccc(-c2cccc(NC(=O)c3nc4c(s3)CN(CCF)CC4)c2Cl)c1Cl)c1cc2n(n1)CCCC2NCCO (stereo not drawn) [Compound 150-1]", "IC50": "< 10 nM"}
{"COMPOUND": "COc1cc(-c2cccc(-c3cccc(NC(=O)c4cc5n(n4)CCCC5N4CC[C@@H](O)C4)c3Cl)c2Cl)cc(F)c1CN1CC[C@@H](O)C1 (stereo partly drawn) [Compound 123]", "IC50": "< 10 nM"}
{"COMPOUND": "COc1cc(-c2cccc(-c3cccc(NC(=O)c4cc5n(n4)CCCC5NCCO)c3Cl)c2Cl)cc(F)c1CNCCO (stereo not drawn) [Compound 124]", "IC50": "< 10 nM"}
{"COMPOUND": "O=C(Nc1cccc(-c2cccc(NC(=O)c3cc4n(n3)CCCC4N3CCC(O)CC3)c2Cl)c1Cl)c1ccc(CNCCO)cn1 (stereo not drawn) [Compound 87]", "IC50": "10 to 100 nM"}
{"COMPOUND": "O=C(O)CN[C@H]1CCCn2nc(C(=O)Nc3cccc(-c4cccc(Nc5nc(C(F)F)nc6cc(CN7CC[C@@H](O)C7)cnc56)c4Cl)c3Cl)cc21 (stereo in doubt) [Compound 294]", "IC50": "10 to 100 nM"}
{"COMPOUND": "Cc1c(NC(=O)c2cc3n(n2)CCCC3O)cccc1-c1cccc(-c2ccc(CNC[C@@H]3CCC(=O)N3)cc2)c1C (stereo partly drawn) [Compound 109]", "IC50": "< 10 nM"}
{"COMPOUND": "CC(=O)NCCNC1CCCn2nc(C(=O)Nc3cccc(-c4cccc(NC(=O)c5ccc(CN6CC[C@@H](O)C6)cn5)c4C)c3C)cc21 (stereo partly drawn) [Compound 94]", "IC50": "< 10 nM"}
{"COMPOUND": "COCCNC1CCCn2nc(C(=O)Nc3cccc(-c4cccc(Nc5nccc6cc(CN7CC[C@@H](O)C7)cnc56)c4Cl)c3Cl)cc21 (stereo partly drawn) [Compound 234]", "IC50": "10 to 100 nM"}
{"COMPOUND": "Cc1c(NC(=O)c2cc3n(n2)CCC[C@@H]3N2CC[C@@H](C(=O)O)C2)cccc1-c1cccc(Nc2nc(C(F)F)nc3cc(CN4CC[C@@H](O)C4)cnc23)c1C [Compound 210]", "IC50": "< 10 nM"}
{"COMPOUND": "Cc1c(-c2cc3n(n2)CCCC3N2CCC(O)C2)cccc1-c1cccc(-c2cc3n(n2)CCCC3N2CCC(O)C2)c1C (stereo not drawn) [Compound 156]", "IC50": "100 to 1000 nM"}
{"COMPOUND": "Cc1c(NC(=O)c2cc3n(n2)CCCC3N2CCC(C(=O)O)CC2)cccc1-c1cccc(Nc2nc(C(F)F)nc3cc(CN4CC[C@@H](O)C4)cnc23)c1C (stereo partly drawn) [Compound 136]", "IC50": "< 10 nM"}
{"COMPOUND": "O=C(Nc1cccc(-c2cccc(NC(=O)c3cc4n(n3)CCC[C@H]4N3CC[C@@H](O)C3)c2Cl)c1Cl)c1ccc(CNCCO)cn1 [Compound 244]", "IC50": "< 10 nM"}
{"COMPOUND": "CC(=O)NCCNC1CCCn2nc(C(=O)Nc3cccc(-c4cccc(NC(=O)c5nc6c(s5)CN(C)CC6)c4C)c3C)cc21 (stereo not drawn) [Compound 148]", "IC50": "< 10 nM"}
{"COMPOUND": "CC(=O)NCCNC1CCCn2nc(C(=O)Nc3cccc(-c4cccc(Nc5nccc6cc(CN7CC[C@@H](O)C7)cnc56)c4C)c3Cl)cc21 (stereo partly drawn) [Compound 30]", "IC50": "< 10 nM"}
{"COMPOUND": "O=C(Nc1cccc(-c2cccc(NC(=O)c3ncc(CNCCO)cc3F)c2Cl)c1Cl)c1cc2n(n1)CCCC2N1CC[C@@H](C(=O)O)C1 (stereo partly drawn) [Compound 201]", "IC50": "< 10 nM"}
{"COMPOUND": "Cc1c(NC(=O)c2ccc(CNCCO)cn2)cccc1-c1cccc(NC(=O)c2cc3n(n2)CCCC3N2CC[C@@H](C(=O)O)C2)c1C (stereo partly drawn) [Compound 77]", "IC50": "< 10 nM"}
{"COMPOUND": "CC(C)c1nc(Nc2cccc(-c3cccc(NC(=O)c4cc5n(n4)CCC[C@H]5N4CC(C(=O)O)C4)c3Cl)c2Cl)c2ncccc2n1 [Compound 302]", "IC50": "10 to 100 nM"}
{"COMPOUND": "O=C1CC[C@@H](CNC2CCCn3nc(-c4cccc(-c5cccc(Nc6nccc7cc(CN8CC[C@@H](O)C8)cnc67)c5Cl)c4Cl)cc32)N1 (stereo partly drawn) [Compound 182]", "IC50": "10 to 100 nM"}
{"COMPOUND": "N#Cc1cc(CN2CC[C@@H](C(=O)O)C2)cc2nc(-c3cccc(-c4cccc(NC(=O)c5cc6n(n5)CCCC6NC[C@@H]5CCC(=O)N5)c4Cl)c3Cl)oc12 (stereo partly drawn) [Compound 68]", "IC50": "< 10 nM"}
{"COMPOUND": "O=C(Nc1cccc(-c2cccc(Nc3nc(C(F)(F)F)nc4cccnc34)c2Cl)c1Cl)c1cc2n(n1)CCC[C@H]2N1CCC(C(=O)O)CC1 [Compound 274]", "IC50": "10 to 100 nM"}
{"COMPOUND": "O=C(Nc1cccc(-c2cccc(Nc3nc(C(F)(F)F)nc4cccnc34)c2Cl)c1Cl)c1cc2n(n1)CCC[C@H]2N1CC(C(=O)O)C1 [Compound 278]", "IC50": "10 to 100 nM"}
{"COMPOUND": "CC(C)(NC1CCCn2nc(C(=O)Nc3cccc(-c4cccc(NC(=O)c5ccc(CNCCO)cn5)c4Cl)c3Cl)cc21)C(=O)O (stereo not drawn) [Compound 90]", "IC50": "< 10 nM"}
{"COMPOUND": "Cc1c(NC(=O)c2ccc(CN3CC[C@@H](O)C3)cn2)cccc1-c1cccc(NC(=O)c2cc3n(n2)CCCC3NCCO)c1C (stereo partly drawn) [Compound 91]", "IC50": "< 10 nM"}
{"COMPOUND": "COc1cc(C(=O)Nc2cccc(-c3cccc(NC(=O)c4cc5n(n4)CCCC5NCC(=O)O)c3Cl)c2Cl)cc(F)c1CNCC(=O)O (stereo not drawn) [Compound 191]", "IC50": "< 10 nM"}
